system: MDA-MB-435; test: NCI 60 panel growth inhibition (SRB), melanoma; assay type: cell-based, human; settings: MDA-MB-435, 10 μM
measurementType: GI%

Below, each entry is followed by its recorded GI% result.
> print(dat)
                                   compound  recordedmeasurement
1  COc1cccc(-c2nc3ccccc3s2)c1OCC(=O)NN=C1C(=O)Nc2ccc(Cl)cc21         – (GI% < 5%)
2  COc1ccc(-c2nc3ccccc3s2)cc1OCC(=O)NN=C1C(=O)Nc2ccc([N+](=O)[O-])cc21         – (GI% < 5%)
3  COc1ccc(-c2nc3ccccc3s2)cc1OCC(=O)NN=C1C(=O)Nc2ccccc21         – (GI% < 5%)
4  COc1ccc(-c2nc3ccccc3s2)cc1OCC(=O)NN=C1C(=O)Nc2ccc(Br)cc21         – (GI% < 5%)

State its GI% on MDA-MB-435: COc1ccc(-c2nc3ccccc3s2)cc1OCC(=O)NN=C1C(=O)Nc2ccc(C)cc21
– (GI% < 5%)

# get_value(readout= GI%, system= MDA-MB-435) for O=C(COc1ccccc1-c1nc2ccccc2s1)NN=C1C(=O)Nc2ccccc21
– (GI% < 5%)

----------
system: UACC-257; experiment: NCI 60 panel growth inhibition (SRB), melanoma; format: cell-based, human; conditions: UACC-257, 10 μM
measurementType: GI%

> print(dat)
                                   molecule  recordedmeasurement
1  COc1ccc(-c2nc3ccccc3s2)cc1OCC(=O)NN=C1C(=O)Nc2ccc(Br)cc21         – (GI% < 5%)
2  CNC(=O)c1nn(C)c2c1C(C)(C)Cc1cnc(Nc3ccc(N4CCN(C)CC4)cc3)nc1-2 [Milciclib, reference compound]              114.80%
3  COc1ccc(-c2nc3ccccc3s2)cc1OCC(=O)NN=C1C(=O)Nc2ccccc21         – (GI% < 5%)
4  COc1ccc(-c2nc3ccccc3s2)cc1OCC(=O)NN=C1C(=O)Nc2ccc(Cl)cc21         – (GI% < 5%)
5  COc1ccc2c(c1)C(=NNC(=O)COc1cc(-c3nc4ccccc4s3)ccc1OC)C(=O)N2         – (GI% < 5%)

For the molecule COc1cccc(-c2nc3ccccc3s2)c1OCC(=O)NN=C1C(=O)Nc2ccc([N+](=O)[O-])cc21 , what GI% is on record?
5.08%

Query (molecule): COc1ccc2c(c1)C(=NNC(=O)COc1c(OC)cccc1-c1nc3ccccc3s1)C(=O)N2 ; field requested: GI%
– (GI% < 5%)

GET /values?readout=GI%&item= COc1ccc2c(c1)C(=NNC(=O)COc1ccccc1-c1nc3ccccc3s1)C(=O)N2
– (GI% < 5%)

Which GI% value belongs to COc1cccc(-c2nc3ccccc3s2)c1OCC(=O)NN=C1C(=O)Nc2ccc(Cl)cc21 ?
– (GI% < 5%)

# lookup: GI% of O=C(COc1ccccc1-c1nc2ccccc2s1)NN=C1C(=O)Nc2ccc(Br)cc21
13.04%

# query: GI% of entry O=C(COc1ccccc1-c1nc2ccccc2s1)NN=C1C(=O)Nc2ccccc21
6.77%

If you can, please state the reported GI% value of COc1cccc(-c2nc3ccccc3s2)c1OCC(=O)NN=C1C(=O)Nc2ccc(Br)cc21 .
– (GI% < 5%)

Would you mind telling me what GI% value was observed for COc1cccc(-c2nc3ccccc3s2)c1OCC(=O)NN=C1C(=O)Nc2ccccc21 ?
– (GI% < 5%)
